Please respond with reported IC50 for every item in the list.
# Tested on: 1a-H77 replicon cells
# methodDescription: HCV 1a replicon inhibitory activity (Renilla luciferase)
# Format: cell-based, hepatitis C virus
# assayContext: Hepatitis C virus, 48 h, read-out: IC50 value (95% Confidence Intervals) pM Replicon 1A assay
Where a name gives a salt, the structure may show the parent alone.
Answers are plain numbers, in pM.

COC(=O)N[C@H](C(=O)N1CCC[C@H]1c1nc(-c2ccc(-c3cnc4cc(-c5cnc([C@@H]6CCCN6C(=O)C6(NC(=O)OC)CCC6)[nH]5)ccc4n3)cc2)c[nH]1)C(C)C [Example 50, trifluoroacetic acid salt]: 356
COC(=O)N[C@H](C(=O)N1CCC[C@H]1c1ncc(-c2ccc3nc(-c4ccc(-c5c[nH]c([C@@H]6CCCN6C(=O)[C@@H](NC(=O)OC)C(C)C)n5)cc4)cnc3c2)[nH]1)c1ccccc1 [Example 56, trifluoroacetic acid salt]: 26.3
CC[C@H](NC(C)=O)C(=O)N1CCC[C@H]1c1ncc(-c2ccc3nc(-c4ccc(-c5c[nH]c([C@@H]6CCCN6C(=O)[C@@H](NC(=O)OC)C(C)C)n5)cc4)cnc3c2)[nH]1 [Example 39, trifluoroacetic acid salt]: 1240
COC(=O)N[C@H](C(=O)N1CCC[C@H]1c1nc(-c2ccc(-c3cnc4cc(-c5cnc([C@@H]6CCCN6C(=O)C(C)(C)NC(=O)OC)[nH]5)ccc4n3)cc2)c[nH]1)C(C)C [Example 51, trifluoroacetic acid salt]: 1850
COC(=O)N[C@H](C(=O)N1CCC[C@H]1c1nc(-c2ccc(-c3cnc4cc(-c5cnc([C@@H]6CCCN6C(=O)[C@@H](COCc6ccccc6)NC(=O)OC)[nH]5)ccc4n3)cc2)c[nH]1)C(C)C [Example 63, trifluoroacetic acid salt]: 4770
CCC[C@H](NC(=O)OC)C(=O)N1CCC[C@H]1c1ncc(-c2ccc3nc(-c4ccc(-c5c[nH]c([C@@H]6CCCN6C(=O)[C@@H](NC(=O)OC)C(C)C)n5)cc4)cnc3c2)[nH]1 [Example 55, trifluoroacetic acid salt]: 18.1
COC(=O)N[C@H](C(=O)N1CCC[C@H]1c1nc(-c2ccc(-c3cnc4cc(-c5cnc([C@@H]6CCCN6C(=O)[C@H](NC(=O)OC)C(C)C)[nH]5)ccc4n3)cc2)c[nH]1)C(C)C [Example 61, trifluoroacetic acid salt]: 6400
COC(=O)N[C@H](C(=O)N1CCC[C@H]1c1nc(-c2ccc(-c3cnc4cc(-c5cnc([C@@H]6CCCN6C(=O)[C@H](NC(=O)OC)[C@@H](C)OC(C)(C)C)[nH]5)ccc4n3)cc2)c[nH]1)C(C)C [Example 75, trifluoroacetic acid salt]: 4190

Please supply IC50 for each of the following items, keeping them in order.
1. COC(=O)N[C@H](C(=O)N1CCC[C@H]1c1nc(-c2ccc(-c3cnc4cc(-c5cnc([C@@H]6CCCN6C(=O)CNC(=O)CN6C(=O)CCc7ccccc76)[nH]5)ccc4n3)cc2)c[nH]1)C(C)C [Example 45, trifluoroacetic acid salt]
2. COC(=O)N[C@H](C(=O)N1CCC[C@H]1c1nc(-c2ccc(-c3cnc4cc(-c5cnc([C@@H]6CCCN6C(=O)[C@@H](CCc6ccccc6)NC(=O)OC)[nH]5)ccc4n3)cc2)c[nH]1)C(C)C [Example 72, trifluoroacetic acid salt]
3. COC(=O)N[C@H](C(=O)N1CCC[C@H]1c1nc(-c2ccc(-c3cnc4cc(-c5cnc([C@@H]6CCCN6C(=O)[C@H](CCC(N)=O)NC(C)=O)[nH]5)ccc4n3)cc2)c[nH]1)C(C)C [Example 34, trifluoroacetic acid salt]
4. COC(=O)N[C@H](C(=O)N1CCC[C@H]1c1nc(-c2ccc(-c3cnc4cc(-c5cnc([C@@H]6CCCN6C(=O)[C@@H](Cc6ccccn6)NC(=O)OC)[nH]5)ccc4n3)cc2)c[nH]1)C(C)C [Example 83, trifluoroacetic acid salt]
5. CCC[C@H](NC(C)=O)C(=O)N1CCC[C@H]1c1ncc(-c2ccc3nc(-c4ccc(-c5c[nH]c([C@@H]6CCCN6C(=O)[C@@H](NC(=O)OC)C(C)C)n5)cc4)cnc3c2)[nH]1 [Example 37, trifluoroacetic acid salt]
6. COC(=O)N[C@H](C(=O)N1CCC[C@H]1c1nc(-c2ccc(-c3cnc4cc(-c5cnc([C@@H]6CCCN6C(=O)CNC(C)=O)[nH]5)ccc4n3)cc2)c[nH]1)C(C)C [Example 35, trifluoroacetic acid salt]
7. COC(=O)N[C@H](C(=O)N1CCC[C@H]1c1nc(-c2ccc(-c3cnc4cc(-c5cnc([C@@H]6CCCN6C(=O)[C@@H](COC(C)(C)C)NC(=O)OC)[nH]5)ccc4n3)cc2)c[nH]1)C(C)C [Example 76, trifluoroacetic acid salt]

[20000, 53.6, 5930, 1030, 284, 2300, 157]

Name the reported IC50 value associated with the compound CCC[C@@H](NC(=O)OC)C(=O)N1CCC[C@H]1c1ncc(-c2ccc3nc(-c4ccc(-c5c[nH]c([C@@H]6CCCN6C(=O)[C@@H](NC(=O)OC)C(C)C)n5)cc4)cnc3c2)[nH]1 [Example 77, trifluoroacetic acid salt]
186
